Test: Solubility of the compound in RPMI 1640 medium by microscopic analysis
Assay type: physicochemical

| smiles-string | solubility [µM] |
| --- | --- |
| COc1cc(OC)c2c(O)cc(=O)oc2c1 | 20 |
| COc1ccc2c(O)cc(=O)oc2c1OC | 100 |

----------
System: HL-60
Assay: Cytotoxicity against human HL60 cells assessed as cell viability at 10 uM after 72 hrs by WST1 assay relative to control
Assay type: functional
Conditions: HL-60, 72 h, read-out: Activity
Doc: threshold 80% (exclusive). Items with viability at 10 µM beneath it return yes; others return no.

| smiles-string | label-value |
| --- | --- |
| COc1ccc(-c2c(O)c3cc(C)ccc3oc2=O)cc1 | no |
| COc1ccc2c(O)cc(=O)oc2c1OC | yes |
| Cc1ccc2oc(=O)c(-c3ccccc3)c(OCc3ccccc3)c2c1 | no |
| Cc1ccc2oc(=O)cc(OCc3ccccc3)c2c1 | yes |
| COc1cc(OC)c2c(O)cc(=O)oc2c1 | yes |
| O=c1cc(OCc2ccccc2)c2ccccc2o1 | yes |
| COc1ccc(-c2c(O)c3ccccc3oc2=O)c(OC)c1 | no |
| COc1ccc(-c2c(O)c3ccccc3oc2=O)cc1 | no |
| O=c1oc2ccccc2c(OCc2ccccc2)c1-c1ccccc1 | no |
| Cc1ccc2oc(=O)c(-c3ccccc3)c(O)c2c1 | yes |
| COc1ccc(-c2c(O)c3cc(C)ccc3oc2=O)c(OC)c1 | yes |
| O=c1oc2ccccc2c(O)c1-c1ccccc1 | yes |

The reported measurements were obtained from ChEMBL document CHEMBL2069224.
